method-summary: Pharmacokinetic study after oral administration in SD rats
Format: in vivo, rat
conditions-used: male, Sprague-Dawley, rat, in vivo, po, 150 mg/kg
test-readout: MRT (h)
Unit h implied. Number only.

Problem: // returns reported MRT for input CCN(CC)C(=O)CC(C)(C(=O)/C=C/c1ccc(OC)c(OC)c1)C(=O)/C=C/c1ccc(OC)c(OC)c1 [TML-6]
Solution: 3.91

---

method-summary: Pharmacokinetic study after oral administration in SD rats
Format: in vivo, rat
conditions-used: male, Sprague-Dawley, rat, in vivo, po, 150 mg/kg
test-readout: half-life
Answers without a unit are incomplete; give the number and then its unit.

Problem: // returns reported half-life for input CCN(CC)C(=O)CC(C)(C(=O)/C=C/c1ccc(OC)c(OC)c1)C(=O)/C=C/c1ccc(OC)c(OC)c1 [TML-6]
Solution: 1.27 h

The origin of these recorded values is paper PMC7432838.
